carbonic anhydrase (Bos taurus, UniProt P00921): reported IC50 for various compounds.
Sequence (P00921 whole entry): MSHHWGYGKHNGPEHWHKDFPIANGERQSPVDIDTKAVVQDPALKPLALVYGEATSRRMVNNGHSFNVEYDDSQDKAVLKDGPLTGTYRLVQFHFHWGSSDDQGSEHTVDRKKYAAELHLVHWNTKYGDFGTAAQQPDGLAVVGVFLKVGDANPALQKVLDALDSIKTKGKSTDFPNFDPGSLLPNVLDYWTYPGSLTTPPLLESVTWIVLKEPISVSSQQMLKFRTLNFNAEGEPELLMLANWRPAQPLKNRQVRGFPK
reported-property: IC50 (nM)

chemical-string: CCCCC(=O)NC(=S)Nc1ccccc1-c1nc2ccccc2c2nc3ccccc3n12
reported-property: IC50
unit-text: nM
recorded-value: 2760
--
chemical-string: CCCCCCCCCC(=O)NC(=S)Nc1ccccc1-c1nc2ccccc2c2nc3ccccc3n12
reported-property: IC50
unit-text: nM
recorded-value: 708
--
chemical-string: CCCCCCC(=O)NC(=S)Nc1ccccc1-c1nc2ccccc2c2nc3ccccc3n12
reported-property: IC50
unit-text: nM
recorded-value: 3510
--
chemical-string: CC(C)(C)C(=O)NC(=S)Nc1ccccc1-c1nc2ccccc2c2nc3ccccc3n12
reported-property: IC50
unit-text: nM
recorded-value: 2330

====

Below, each entry is listed with its recorded IC50.
Molecular target: mushroom tyrosinase
Assay: Mushroom tyrosinase inhibition assay
Settings: L-DOPA substrate, Mean ± SEM
reported-property: IC50 (nM)

chemical-string: CCCCCCC(=O)NC(=S)Nc1ccccc1-c1nc2ccccc2c2nc3ccccc3n12
recorded-value: 921

chemical-string: CCCCCCCC(=O)NC(=S)Nc1ccccc1-c1nc2ccccc2c2nc3ccccc3n12
recorded-value: 1850

chemical-string: CCCCCCCCCC(=O)NC(=S)Nc1ccccc1-c1nc2ccccc2c2nc3ccccc3n12
recorded-value: 832

chemical-string: CCCCCC(=O)NC(=S)Nc1ccccc1-c1nc2ccccc2c2nc3ccccc3n12
recorded-value: 2800

chemical-string: CCCCC(=O)NC(=S)Nc1ccccc1-c1nc2ccccc2c2nc3ccccc3n12
recorded-value: 4880

chemical-string: CCCC(=O)NC(=S)Nc1ccccc1-c1nc2ccccc2c2nc3ccccc3n12
recorded-value: 7940

chemical-string: CCCCCCCCC(=O)NC(=S)Nc1ccccc1-c1nc2ccccc2c2nc3ccccc3n12
recorded-value: 2050

chemical-string: CC(C)(C)C(=O)NC(=S)Nc1ccccc1-c1nc2ccccc2c2nc3ccccc3n12
recorded-value: 1270

====

As a worked illustration, we turn to IC50 data collected for calf intestinal alkaline phosphatase (CIAP) (Bos taurus, UniProt P19111).
reported-property: IC50

chemical-string: CC(C)(C)C(=O)NC(=S)Nc1ccccc1-c1nc2ccccc2c2nc3ccccc3n12
recorded-value: 7.2 µM
--
chemical-string: CCCCCCCCCC(=O)NC(=S)Nc1ccccc1-c1nc2ccccc2c2nc3ccccc3n12
recorded-value: 2.81 µM
--
chemical-string: CCCCCCCC(=O)NC(=S)Nc1ccccc1-c1nc2ccccc2c2nc3ccccc3n12
recorded-value: 7.77 µM
--
chemical-string: CCCCCCCCC(=O)NC(=S)Nc1ccccc1-c1nc2ccccc2c2nc3ccccc3n12
recorded-value: 7.02 µM
--
chemical-string: CCCCCC(=O)NC(=S)Nc1ccccc1-c1nc2ccccc2c2nc3ccccc3n12
recorded-value: 20.3 µM
